assay: DNDI: Solubility in phosphate buffered saline at pH7.4 measured by optical density (turbidimetry) at room temperature (OD-RT)
Type: physicochemical
condition_info: pH 7.4
I'd be grateful if you could share measured solubility kinetic for these entries.
Give your result in µM as a bare value.

Query string: Specify measured solubility kinetic for CCCCCC(C)NCc1coc(-c2ccc(OCCCC)cc2)n1 (stereo not drawn) .
Result string: 1.6

Query string: Specify measured solubility kinetic for "O/N=C(\NC1CCCC1)c1ccccc1-c1ccccc1" .
Result string: 50

Query string: Specify measured solubility kinetic for CCCCCC(C)NCc1coc(-c2ccc(OCC)cc2)n1 (stereo not drawn) .
Result string: 32

---

Tested on: L929
assay: DNDI: Cytotoxicity against L929 mouse fibroblasts, 72 hour.
Assay type: toxicity, cell-based
condition_info: l929
quantity_kind: IC50
Units required after the number.

Query string: Specify measured IC50 for CCCCc1ccc(-c2nc(CNC3CC(C)CC(C)(C)C3)co2)cc1 (stereo unspecified) .
Result string: 1.26 µg/mL

Query string: Specify measured IC50 for "CCCCc1ccc(-c2nc(CNCC(C)(C)CN)co2)cc1" .
Result string: 2.96 µg/mL

Query string: Specify measured IC50 for "CCCCc1ccc(-c2nc(CNCC(C)(C)CN(C)C)co2)cc1" .
Result string: 2.73 µg/mL

Query string: Specify measured IC50 for CCCCc1ccc(-c2nc(CNCC(O)CN)co2)cc1 (stereo unspecified) .
Result string: 3.31 µg/mL

Query string: Specify measured IC50 for CN1CCCC1CCNCc1coc(-c2ccc(OC3CCCC3)cc2)n1 (stereo unspecified) .
Result string: 1.42 µg/mL

Query string: Specify measured IC50 for CCCCCC(C)NCc1coc(-c2ccc(OC(C)C)cc2)n1 (stereo unspecified) .
Result string: 3.42 µg/mL
